Each record here notes measured protein stability index.
B1: PHTF1 (parent)
chain: RVKLISNKGTETDNDPSCVHPIIK

# Variants of: B1
# assay_details: protein stability index of a GFP-peptide fusion (GPS, HEK-293T) (PSI 1-6); higher = more stable;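 also: lentivirally expressed fusions sorted by FACS into six bins by GFP to DsRed ratio, PSI derived from sequencing read proportions per bin multiplied by bin number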
# condition_label: c terminus: a fixed tail appended
Form field (numeric): enter value without unit.

{"variant_annotation": "T12G", "observed_property": "protein stability index", "data_value": 4.14}
{"variant_annotation": "V19L", "observed_property": "protein stability index", "data_value": 3.68}
{"variant_annotation": "K3T", "observed_property": "protein stability index", "data_value": 4.19}

[in] Return value of protein stability index for input K24V , no commentary.
[out] 3.17

[in] Return value of protein stability index for input H20P , no commentary.
[out] 4.02

Data origin, for the record: the supplement of paper PMC10567573
